Assay: Half life in CD rat at […], iv and 5 mg/kg, po
Type: ADME, organism-based
Settings: in vivo
readout-type: half-life (min)
Give bare numbers, in min.

Input line: What value of half-life has been reported for the following molecule? Cc1cc(CNC(=O)c2cc(-c3ccc(C(C)(C)C)cc3)n(C)n2)ccc1OC(C)(C)C(=O)O
Output line: 49.8

----------
pEC50 values recorded for Peroxisome proliferator-activated receptor gamma (Homo sapiens)
Give bare numbers, as −log10 of the molar value.

CCn1nc(C(=O)NCc2ccc(OC(C)(C)C(=O)O)c(OC)c2)cc1-c1ccc(C(C)(C)C)cc1	6.72
Cc1cc(CNC(=O)c2cc(-c3ccc(CC(C)C)cc3)nn2C)ccc1OC(C)(C)C(=O)O	7.30
C=CCn1nc(-c2ccc(C(C)(C)C)cc2)cc1C(=O)NCc1ccc(OC(C)(C)C(=O)O)c(C)c1	7.22
Cc1cc(CNC(=O)c2cc(-c3ccc(N4CCOCC4)cc3)n(C)n2)ccc1OC(C)(C)C(=O)O	6.96
CCn1nc(-c2ccc(C(C)(C)C)cc2)cc1C(=O)NCc1ccc(OC(C)(C)C(=O)O)c(C)c1	7.52

Below are some compounds; for each one, tell me its pEC50.
1. Cc1cc(CNC(=O)c2cc(-c3ccc(C(C)C)cc3)n(C)n2)ccc1OC(C)(C)C(=O)O
2. Cn1nc(-c2ccc(C(C)(C)C)cc2)cc1C(=O)NCc1ccc(OC(C)(C)C(=O)O)cc1
3. Cc1nc(-c2ccc(C(C)(C)C)cc2)sc1C(=O)NCc1ccc(OC(C)(C)C(=O)O)cc1
4. Cc1cc(CNC(=O)c2cc(-c3ccc(C(C)C)cc3)nn2C)ccc1OC(C)(C)C(=O)O
5. Cc1cc(CNC(=O)c2cc(-c3ccc(OCc4ccccc4)cc3)n(C)n2)ccc1OC(C)(C)C(=O)O

Output line:
1. 8.10
2. 6.00
3. 6.10
4. 7.30
5. 7.10

For every item below, please supply its pEC50.
1. Cc1cc(CNC(=O)c2cc(-c3ccc(-c4ccccc4C)cc3)n(C)n2)ccc1OC(C)(C)C(=O)O
2. CCn1nc(C(=O)NCc2ccc(OC(C)(C)C(=O)O)c(C)c2)cc1-c1ccc(C(C)(C)C)cc1
3. COc1cc(CNC(=O)c2cc(-c3ccc(C(C)(C)C)cc3)n(C)n2)ccc1OC(C)(C)C(=O)O

Output line:
1. 7.52
2. 7.82
3. 6.75
